These measurements were taken from paper PMC7819943.

Biological target: OsWOX13 (Oryza sativa, UniProt Q5QMM3 1-267)
Sequence: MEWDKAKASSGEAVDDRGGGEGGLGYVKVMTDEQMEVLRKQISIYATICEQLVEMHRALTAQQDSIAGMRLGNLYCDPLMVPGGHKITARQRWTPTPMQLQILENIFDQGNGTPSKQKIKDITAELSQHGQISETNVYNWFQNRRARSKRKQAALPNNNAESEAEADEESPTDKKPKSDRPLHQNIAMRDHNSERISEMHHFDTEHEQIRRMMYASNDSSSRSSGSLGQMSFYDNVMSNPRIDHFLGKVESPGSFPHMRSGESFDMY
Experiment: protein-binding microarray (RPBM); PBS, 2% BSA, 51.3 ng/ul salmon testes DNA, 50 uM zinc acetate, 200 nM TF, 25 C, 1 h; high values mean tight binding
Conditions: protein: recombinant; tags: N-terminal polyhistidine and DsRed monomer fusion (pET32a); label: CyDye5-dUTP incorporated in the synthesized complementary strand; 3' TTTTT single-stranded linker to array surface; dsDNA, one strand shown
In all, about 35,000 sequences were measured (“fluorescence intensity (a.u.)”: median about 10,000, highest 2% from about 52,000 on). Many of the other results were omitted from the sample, so the highest values are more common in it than they were.
Quantity name: binding signal

Field binding signal (entry CCTGATTTCCTCCTTTCAGTGAAGTGTTAAACCCTAGCTACGGAGTCACCTAGTGCAG ) reads 21500 fluorescence intensity (a.u.)

Field binding signal (entry CTGATTAGTGATTTATTTAATTTGAGGAATCATTTTGGCACGGAGTCACCTAGTGCAG ) reads 64900 fluorescence intensity (a.u.)

Field binding signal (entry ATCTAAGCTCATCTCAACCAATCACAACCATCGTTGATTTCGGAGTCACCTAGTGCAG ) reads 3410 fluorescence intensity (a.u.)

Field binding signal (entry AGATTAATTAGGCTTAATAGATTCGTCTACGTTTAATACTCGGAGTCACCTAGTGCAG ) reads 20900 fluorescence intensity (a.u.)

Field binding signal (entry AAATAATGTACAAAAGGTGATAGATGAAACAATAAAGTAGCGGAGTCACCTAGTGCAG ) reads 4460 fluorescence intensity (a.u.)

Field binding signal (entry GTGGATATCAATCTGTATATACTAGATCCCCACCCACCATCGGAGTCACCTAGTGCAG ) reads 6630 fluorescence intensity (a.u.)

Field binding signal (entry TCTGATTGCAATCATTCTTGAATTCTGATACATATTGGATCGGAGTCACCTAGTGCAG ) reads 60300 fluorescence intensity (a.u.)

Field binding signal (entry AAGGAGAATTTTCTTGATTGAAATTATACATCATATTCATCGGAGTCACCTAGTGCAG ) reads 29500 fluorescence intensity (a.u.)

Field binding signal (entry GATTAATTTAGAAATTTTGAATTCTATTACATAATGATCACGGAGTCACCTAGTGCAG ) reads 20600 fluorescence intensity (a.u.)

* * *

Biological target: OsWOX13 (Oryza sativa, UniProt Q5QMM3 1-267)
Sequence: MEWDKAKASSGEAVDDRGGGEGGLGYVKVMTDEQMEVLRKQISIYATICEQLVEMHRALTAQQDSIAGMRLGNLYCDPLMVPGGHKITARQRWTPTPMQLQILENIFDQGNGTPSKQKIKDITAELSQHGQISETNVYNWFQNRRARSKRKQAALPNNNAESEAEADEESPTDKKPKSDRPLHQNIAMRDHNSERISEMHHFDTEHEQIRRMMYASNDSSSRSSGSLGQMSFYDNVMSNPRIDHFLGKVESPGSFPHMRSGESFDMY
Test: protein-binding microarray (RPBM); PBS, 2% BSA, 51.3 ng/ul salmon testes DNA, 50 uM zinc acetate, 200 nM TF, 25 C, 1 h; high values mean tight binding
Conditions: protein: recombinant; tags: N-terminal polyhistidine and DsRed monomer fusion (pET32a); label: CyDye5-dUTP incorporated in the synthesized complementary strand; 3' TTTTT single-stranded linker to array surface; dsDNA, one strand shown
In all, about 35,000 sequences were measured (“fluorescence intensity (a.u.)”: median about 10,000, highest 2% from about 52,000 on). This is one part of a sample in which the highest values are shown more often than they occur.
// reported binding signal for each item listed

A selection of reference data follows.
* TTTCCATTAATAAATTGAAACATATTGAACTAGATCGTTCCGGAGTCACCTAGTGCAG | 15600 fluorescence intensity (a.u.)
* ACCATTGATGGTCCCAATTTAAAATATTTGGCCGAATCTTCGGAGTCACCTAGTGCAG | 3840 fluorescence intensity (a.u.)

Field binding signal (entry ATCTGTCACATTAGACATAAATAAAATATTTGCGAAATGTCGGAGTCACCTAGTGCAG ) reads 3540 fluorescence intensity (a.u.)
